Target: Glycogen synthase kinase-3 beta (Homo sapiens)
Sequence (P49841 whole entry, looked up): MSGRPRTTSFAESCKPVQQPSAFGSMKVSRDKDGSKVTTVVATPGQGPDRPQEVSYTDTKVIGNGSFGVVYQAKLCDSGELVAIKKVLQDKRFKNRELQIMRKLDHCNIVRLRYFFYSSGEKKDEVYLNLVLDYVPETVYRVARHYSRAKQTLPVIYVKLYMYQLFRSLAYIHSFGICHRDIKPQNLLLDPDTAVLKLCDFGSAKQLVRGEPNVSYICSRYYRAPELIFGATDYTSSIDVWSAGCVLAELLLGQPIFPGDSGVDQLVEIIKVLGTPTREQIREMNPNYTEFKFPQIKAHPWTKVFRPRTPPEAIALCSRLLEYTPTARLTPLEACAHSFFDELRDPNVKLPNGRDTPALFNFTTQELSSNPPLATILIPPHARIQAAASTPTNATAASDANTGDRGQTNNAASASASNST
Assay: Allosteric inhibition of GSK3beta in human LN18 cells assessed as decrease in beta-catenin translocation from cytoplasm to nucleus at 10 uM after 72 hrs by DAPI-satining based confocal microscopic analysis
Format: cell-based
Active and inactive are the calls of the source. The rule behind the calls is not given here.
Pick one and only one: TRUE (active), FALSE (inactive)

Task: Hi team, can someone confirm the assay call for CCCCCCCCCCCC(=O)NNC(=O)c1c(O)c2cc(Br)ccc2n(CC)c1=O ?
Result: TRUE

Task: Could you please tell me the result logged for O=C1Cc2c([nH]c3ccc([N+](=O)[O-])cc23)-c2ccccc2N1 in this assay?
Result: FALSE

Task: Hello, I am checking results. What call was entered for Cn1cc(C2=C(c3ccc(Cl)cc3Cl)C(=O)NC2=O)c2ccccc21 ?
Result: FALSE

Task: Hello, I am checking results. What call was entered for CCCCCCCCCCCC(=O)NNC(=O)c1c(O)c2ccccc2n(CC)c1=O ?
Result: TRUE

----------
Target: Glycogen synthase kinase-3 beta (Homo sapiens)
Experiment: Allosteric inhibition of GSK3beta in human […] cells assessed as decrease in beta-catenin translocation from cytoplasm to nucleus at 10 uM after 72 hrs by DAPI-satining based confocal microscopic analysis
Format: cell-based
The source made the active and inactive calls. No cut-off for these calls is given here.
Thanks in advance; please answer with one of these: t = active, f = inactive

Task: Hello, I am checking results. What call was entered for Cn1cc(C2=C(c3ccc(Cl)cc3Cl)C(=O)NC2=O)c2ccccc21 ?
Result: f

Task: How was CCCCCCCCCCCC(=O)NNC(=O)c1c(O)c2ccccc2n(CC)c1=O classified in this test?
Result: t

Task: Per the assay record, what outcome was assigned to O=C1Cc2c([nH]c3ccc([N+](=O)[O-])cc23)-c2ccccc2N1 [ALSTERPAULLONE] ?
Result: f

Task: Entry CCCCCCCCCCCC(=O)NNC(=O)c1c(O)c2cc(Br)ccc2n(CC)c1=O : call = ?
Result: t

These measurements were taken from ChEMBL document CHEMBL4014342.
